# System: L1210
# test: Effect of compound on mouse leukemia L1210 tumor (Intraperitoneally implanted) after single dose injected intraperitoneally on day 1 recorded as animal weight difference of the treated and the control (T-C) at OD of 100 mg/kg
# Assay type: functional
# testParameters: route intraperitoneal
So I've got a bunch of compounds here, and I need their T-C values.
Write down the numeric answer in g and omit the unit.

Input O=C(O)/C=C\C(=O)O.O=NN(CCCl)C(=O)NC1CCCN(Cc2ccccc2)C1 (centres undefined) . Output T-C: -5

Input CCCCN1CCC(NC(=O)N(CCCl)N=O)CC1.O=C(O)/C=C\C(=O)O . Output T-C: -3.9

Input O=C(O)/C=C\C(=O)O.O=NN(CCCl)C(=O)Nc1cccnc1 . Output T-C: -7

Input CCN1CCCC(NC(=O)N(CCCl)N=O)C1.O=C(O)/C=C\C(=O)O (centres undefined) . Output T-C: -5.9

* * *

# Test system: L1210
# test: The effect of compound on mouse leukemia L1210 tumor (Intraperitoneally implanted)after single dose injected intraperitoneally on day 1 […] at OD of 100 mg/kg
# Assay type: functional
# testParameters: route intraperitoneal
assayReadout: T/C (%)
Write down the numeric answer in % and omit the unit.

Input O=C(O)/C=C\C(=O)O.O=NN(CCCl)C(=O)Nc1cccnc1 . Output T/C: 126

Input CCN1CCCC(NC(=O)N(CCCl)N=O)C1.O=C(O)/C=C\C(=O)O (centres undefined) . Output T/C: 235

Input O=C(O)/C=C\C(=O)O.O=NN(CCCl)C(=O)NC1CCCN(Cc2ccccc2)C1 (centres undefined) . Output T/C: 340

Input CCCCN1CCC(NC(=O)N(CCCl)N=O)CC1.O=C(O)/C=C\C(=O)O . Output T/C: 197
